# measurement_description: Stability of baclofen in sulfate or phosphate solutions over 9 weeks
# Type: physicochemical
# test_settings: phosphate or sulfate buffer with NaCl, pH 6, aqueous buffer

{"columns": ["compound", "solubility at 9 weeks"],
 "data": [
  ["NCC(CC(=O)O)c1ccc(Cl)cc1 (stereo not shown)", "≥ 4000 µg/mL"]
]}
